experiment-summary: Phase I first-in-human study, pharmacokinetics after single ascending subcutaneous doses in healthy volunteers
Format: in vivo
cond: human, plasma; single SC dose 2 mg; nominal time 8 h; mean; read-out: Plasma Concentration AXN-001
Bridge positions count the residues as written; N and C are the ends. Square brackets hold non-standard residues; d marks the D form. Peptide text beside a SMILES is read from it. * marks the point of attachment. Phe(2-CONH2) = NC(=O)c1ccccc1C[C@H](N)C(=O)O; Orn(iPr) = CC(C)NCCC[C@H](N)C(=O)O; Oxazole2carbonyl = O=C(c1ncco1)*; 3Pal = N[C@@H](Cc1cccnc1)C(=O)O

{"columns": ["molecule", "level at 8 h (ng/mL)"],
 "data": [
  ["CC(C)NCCC[C@@H]1NC(=O)[C@@H](NC(=O)[C@H](Cc2ccccc2C(N)=O)NC(=O)[C@H](NC(=O)c2ncco2)C(C)C)CSSC[C@@H](C(=O)N[C@@H](Cc2cccnc2)C(N)=O)NC(=O)[C@H](Cc2ccccc2)NC(=O)[C@@H]2CCCN2C(=O)CNC(=O)[C@H](C(C)C)NC(=O)[C@H](CC(=O)O)NC1=O [AXN-001] (Oxazole2carbonyl-[dV][Phe(2-CONH2)]C[Orn(iPr)]DVGPFC[3Pal]-NH2; disulfide 3-10)", 0.713]
]}

* * *

experiment-summary: Phase I first-in-human study, pharmacokinetics after single ascending subcutaneous doses in healthy volunteers
Assay type: in vivo
cond: human, plasma; single SC dose 4 mg; nominal time 0.08 h; mean; read-out: Plasma Concentration AXN-001
Experimental: For Phase I clinical studies, the 32 mg/mL pharmaceutical composition was dosed subcutaneously. […] Participants were administered a single dose (0.5 mL) of AXN-001 or placebo via subcutaneous (SC) injection into the abdomen. […] Individual plasma concentrations of ANX-001 were determined and used for analyses. Pharmacokinetic (PK) parameters of AXN-001 were determined using Phoenix WinNonlin version 8.3. […]
Bridge positions count the residues as written; N and C are the ends. Square brackets hold non-standard residues; d marks the D form. Peptide text beside a SMILES is read from it. * marks the point of attachment. Phe(2-CONH2) = NC(=O)c1ccccc1C[C@H](N)C(=O)O; Orn(iPr) = CC(C)NCCC[C@H](N)C(=O)O; Oxazole2carbonyl = O=C(c1ncco1)*; 3Pal = N[C@@H](Cc1cccnc1)C(=O)O

{"columns": ["molecule", "units-of-measure", "level at 0.08 h"],
 "data": [
  ["CC(C)NCCC[C@@H]1NC(=O)[C@@H](NC(=O)[C@H](Cc2ccccc2C(N)=O)NC(=O)[C@H](NC(=O)c2ncco2)C(C)C)CSSC[C@@H](C(=O)N[C@@H](Cc2cccnc2)C(N)=O)NC(=O)[C@H](Cc2ccccc2)NC(=O)[C@@H]2CCCN2C(=O)CNC(=O)[C@H](C(C)C)NC(=O)[C@H](CC(=O)O)NC1=O [AXN-001] (Oxazole2carbonyl-[dV][Phe(2-CONH2)]C[Orn(iPr)]DVGPFC[3Pal]-NH2; disulfide 3-10)", "ng/mL", 9.6]
]}

* * *

experiment-summary: Phase I first-in-human study, pharmacokinetics after single ascending subcutaneous doses in healthy volunteers
Assay type: in vivo
cond: human, plasma; single SC dose 16 mg; nominal time 6 h; mean; read-out: Plasma Concentration AXN-001
Bridge positions count the residues as written; N and C are the ends. Square brackets hold non-standard residues; d marks the D form. Peptide text beside a SMILES is read from it. * marks the point of attachment. Phe(2-CONH2) = NC(=O)c1ccccc1C[C@H](N)C(=O)O; Orn(iPr) = CC(C)NCCC[C@H](N)C(=O)O; Oxazole2carbonyl = O=C(c1ncco1)*; 3Pal = N[C@@H](Cc1cccnc1)C(=O)O

{"columns": ["compound", "level at 6 h"],
 "data": [
  ["CC(C)NCCC[C@@H]1NC(=O)[C@@H](NC(=O)[C@H](Cc2ccccc2C(N)=O)NC(=O)[C@H](NC(=O)c2ncco2)C(C)C)CSSC[C@@H](C(=O)N[C@@H](Cc2cccnc2)C(N)=O)NC(=O)[C@H](Cc2ccccc2)NC(=O)[C@@H]2CCCN2C(=O)CNC(=O)[C@H](C(C)C)NC(=O)[C@H](CC(=O)O)NC1=O [AXN-001] (Oxazole2carbonyl-[dV][Phe(2-CONH2)]C[Orn(iPr)]DVGPFC[3Pal]-NH2; disulfide 3-10)", "44 ng/mL"]
]}
